# SYSTEM: T1, Human IL22 (human, UniProt Q9GZX6 34-179)
# T1 construct: IL22 of the Biacore and cell assays
# T1 sequence: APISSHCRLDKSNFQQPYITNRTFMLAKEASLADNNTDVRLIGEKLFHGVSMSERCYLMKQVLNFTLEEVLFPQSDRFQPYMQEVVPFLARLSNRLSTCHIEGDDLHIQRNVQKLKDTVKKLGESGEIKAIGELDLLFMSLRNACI
# ASSAY_NOTES: SPR (Biacore); Fab variant, human IL22
Assign pKd to each entry below.
Remember, pKd is on a log scale: it is -log10 of the molar concentration.

Query: pKd; subject: 11041gL1 C91S S96AgH15 (Fab, V domains shown, V-regions only; also called 11041gL10gH15; gH15 = gH8 D54E) VH: EVQLVESGGGLVQPGGSLRLSCAVSGFSLSSYAMIWVRQAPGKGLEWIGIIDIEGSTYYASWAKGRFTISRDSSKNTLYLQMNSLRAEDTAVYYCARDRFVGVDIFDPWGQGTLVTVSS VL: AVVLTQSPSSLSASVGDRVTITCQASEDIYTNLAWYQQKPGKAPKLLIYWASTLASGVPSRFSGSGSGTDFTLTISSLQPEDFATYYCQASVYGNAADSRYTFGGGTKVEIK
10.10

And the next one, 11041gL1 N95D gH1 (Fab, V domains shown, V-regions only; also called 11041gL8gH1) VH: EVQLVESGGGLVQPGGSLRLSCAVSGFSLSSYAMIWVRQAPGKGLEWIGIIDIDGSTYYASWAKGRFTISRDSSKNTVYLQMNSLRAEDTAVYYCARDRFVGVDIFDPWGQGTLVTVSS VL: AVVLTQSPSSLSASVGDRVTITCQASEDIYTNLAWYQQKPGKAPKLLIYWASTLASGVPSRFSGSGSGTDFTLTISSLQPEDFATYYCQACVYGDSADSRYTFGGGTKVEIK ?
9.89

And the next one, 11041gL1gH8 (Fab, V domains shown, V-regions only) VH: EVQLVESGGGLVQPGGSLRLSCAVSGFSLSSYAMIWVRQAPGKGLEWIGIIDIDGSTYYASWAKGRFTISRDSSKNTLYLQMNSLRAEDTAVYYCARDRFVGVDIFDPWGQGTLVTVSS VL: AVVLTQSPSSLSASVGDRVTITCQASEDIYTNLAWYQQKPGKAPKLLIYWASTLASGVPSRFSGSGSGTDFTLTISSLQPEDFATYYCQACVYGNSADSRYTFGGGTKVEIK ?
9.56
